Biological target: T1, mouse CTGF (antigen of the Biacore assay) (mouse, UniProt P29268 26-348)
T1 construct: also called mouse CTGF protein
T1 sequence (looked up): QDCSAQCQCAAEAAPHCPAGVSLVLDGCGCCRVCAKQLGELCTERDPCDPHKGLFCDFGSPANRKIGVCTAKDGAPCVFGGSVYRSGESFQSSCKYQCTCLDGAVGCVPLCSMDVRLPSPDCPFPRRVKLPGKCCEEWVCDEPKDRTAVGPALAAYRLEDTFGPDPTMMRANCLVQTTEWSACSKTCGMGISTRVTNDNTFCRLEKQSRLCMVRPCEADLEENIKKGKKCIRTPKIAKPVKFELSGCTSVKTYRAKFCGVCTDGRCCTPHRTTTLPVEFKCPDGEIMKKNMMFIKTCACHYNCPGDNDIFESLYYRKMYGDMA
Experiment: Biacore, antibody captured on Protein A, mouse CTGF in flow, 1:1 fit
Source text: A certain amount of each of the test antibodies was affinity-captured with Protein A biosensor chip (Cat. # 29127556, GE), and then a certain concentration of human or mouse CTGF was allowed to flow through the surface of the chip. The reaction signals were detected in real time with Biacore instrument to generate a binding and dissociation curve. […]
Can you tell me koff for the items I'm about to list?
Unit s⁻¹ implied. Number only.

Request: Recorded koff of Hu147-33wk (antibody, human IgG1, kappa, V domains shown) VH: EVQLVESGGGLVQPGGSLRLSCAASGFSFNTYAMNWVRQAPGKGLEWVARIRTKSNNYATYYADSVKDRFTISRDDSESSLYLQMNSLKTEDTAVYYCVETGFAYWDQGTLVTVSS VL: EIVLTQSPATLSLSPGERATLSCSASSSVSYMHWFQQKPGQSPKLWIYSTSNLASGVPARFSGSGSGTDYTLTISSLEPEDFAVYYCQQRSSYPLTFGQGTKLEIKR , please.
Result: 0.174

Request: Report koff for Hu95-21wk (antibody, human IgG1, kappa, V domains shown) VH: EVQLVQSGAEVKKPGASVKVSCKASGFTFTNYDIHWVRQAPGQRLEWIGLVYPYNGGTAYNQKFKDRATLTFDTSASTAYMELSSLRSEDTAVYYCARWGLIPGTTSYFDVWGQGTTVTVSS VL: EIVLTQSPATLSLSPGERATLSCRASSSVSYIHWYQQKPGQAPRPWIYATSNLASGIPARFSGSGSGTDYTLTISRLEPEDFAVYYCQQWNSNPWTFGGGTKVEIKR please.
Result: 0.0211

Request: Look up koff: Hu164-57wl (antibody, human IgG1, lambda, V domains shown) VH: EVTLKESGPVLVKPTETLTLTCTVSGFSLSTFGVHWIRQPPGKALEWLAVIWRRGGTDYNAAFMSRLTISKDTSKSQVVLTMTNMDPVDTATYYCARDGGFDYWGQGTTVTVSS VL: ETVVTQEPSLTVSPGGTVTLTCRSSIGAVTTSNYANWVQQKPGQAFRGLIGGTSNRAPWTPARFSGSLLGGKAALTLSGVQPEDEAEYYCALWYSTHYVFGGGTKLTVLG
Result: 0.00237

Request: Please report the recorded koff for Hu164-68wl (antibody, human IgG1, lambda, V domains shown) VH: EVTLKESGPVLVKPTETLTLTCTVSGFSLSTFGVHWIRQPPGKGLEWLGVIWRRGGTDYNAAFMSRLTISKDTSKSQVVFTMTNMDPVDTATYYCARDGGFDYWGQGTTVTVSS VL: ETVVTQEPSFSVSPGGTVTLTCRSSIGAVTTSNYANWVQQTPGQAFRGLIGGTSNRAPGVPDRFSGSILGNKAALTITGAQADDESDYYCALWYSTHYVFGGGTKLTVLG .
Result: 0.0076

Request: Entry Hu147-11wk (antibody, human IgG1, kappa, V domains shown) VH: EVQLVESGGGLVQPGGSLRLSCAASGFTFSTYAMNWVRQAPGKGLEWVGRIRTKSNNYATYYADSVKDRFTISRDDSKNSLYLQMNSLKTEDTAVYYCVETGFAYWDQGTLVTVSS VL: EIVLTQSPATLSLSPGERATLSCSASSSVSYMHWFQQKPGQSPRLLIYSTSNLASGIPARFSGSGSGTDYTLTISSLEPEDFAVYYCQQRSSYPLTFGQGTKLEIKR has what koff?
Result: 0.374
